Quick note: these are pIC50 numbers for system: UniProtKB P09917
The meaning of pIC50 here: minus log10 of the concentration in molar units.

Check out these entries, answers already filled in.
Cc1cnc(O)nc1O | 4.23
Cc1ccc(C(C)C)c(O)c1 | 3.76

Here is the next item to consider.
UniProtKB P09917 / pIC50 / CC1=C(O)C(=O)C(O)CO1 (stereo not drawn) : value?
4.13

---

- Procedure Details: ABTS free radical scavenging assay
- Applied Conditions: 62.5 µg/mL
// label = 1 if ABTS % inhibition is not less than 60%, otherwise -1

C=Cc1ccc(O)cc1OC | -1
Cc1ccc(C(C)C)c(O)c1 | 1
O=C1O[C@H]([C@@H](O)CO)C(O)=C1O [AA, ascorbic acid, reference compound] | 1

Kindly determine if ABTS % inhibition recorded for CC1=C(O)C(=O)C(O)CO1 (stereo not drawn) is above or exactly 60%.
1

Kindly determine if ABTS % inhibition recorded for `Cc1cnc(O)nc1O` is above or exactly 60%.
1

---

- Target Or System: 5-LOX (Homo sapiens, UniProt P09917)
- Construct: purchased Sigma-Aldrich (local distributor) 437996
- Sequence (P09917 whole entry): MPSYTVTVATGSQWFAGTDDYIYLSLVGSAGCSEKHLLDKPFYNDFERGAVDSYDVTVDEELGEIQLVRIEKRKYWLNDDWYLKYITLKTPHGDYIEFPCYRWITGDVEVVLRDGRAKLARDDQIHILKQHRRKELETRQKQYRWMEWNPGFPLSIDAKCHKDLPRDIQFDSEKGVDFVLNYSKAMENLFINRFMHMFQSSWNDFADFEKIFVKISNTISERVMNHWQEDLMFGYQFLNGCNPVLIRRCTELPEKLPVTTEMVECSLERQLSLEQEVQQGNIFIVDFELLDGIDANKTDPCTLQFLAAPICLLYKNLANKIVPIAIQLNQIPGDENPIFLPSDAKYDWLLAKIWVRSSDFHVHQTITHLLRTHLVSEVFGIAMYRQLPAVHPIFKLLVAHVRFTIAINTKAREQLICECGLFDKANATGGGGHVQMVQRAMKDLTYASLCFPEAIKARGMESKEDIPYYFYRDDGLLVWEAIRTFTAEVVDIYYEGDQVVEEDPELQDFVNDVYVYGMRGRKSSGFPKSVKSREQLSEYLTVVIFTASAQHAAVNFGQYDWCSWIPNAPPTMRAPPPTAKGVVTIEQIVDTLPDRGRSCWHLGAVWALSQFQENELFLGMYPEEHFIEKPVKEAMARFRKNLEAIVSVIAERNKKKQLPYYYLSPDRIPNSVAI
- Procedure Details: 5-Lipoxygenase (5-LOX) inhibition assay
- Format: biochemical
- Applied Conditions: 125 µg/mL; read-out: % 5-LOX inhibitions
The reader will find reported inhibition at 125 µg/mL values listed item by item below.
Value expressed in %; do not type the unit.

C=Cc1ccc(O)cc1OC [Compound 4, 3-methoxy-4-vinylphenol] | 66.7
Cc1ccc(C(C)C)c(O)c1 [Compound 3, 2-isopropyl-5-methylphenol] | 57.3
C=Cc1cc(OC)c(O)c(OC)c1 [Compound 5, 2,6-dimethoxy-4-vinylphenol] | 57.2
Cc1cnc(O)nc1O [Compound 1, 5-methylpyrimidine-24,4-diol] | 71.4

Here is the next item to consider.
5-LOX (Homo sapiens, UniProt P09917) / inhibition at 125 µg/mL / CC1=C(O)C(=O)C(O)CO1 (centres unmarked) [Compound 2] : value?
66.2

---

- Procedure Details: DPPH free radical scavenging assay
- Applied Conditions: 62.5 µg/mL
Reported Endpoint: DPPH % inhibition (%)
Value expressed in %; do not type the unit.

Check out these entries, answers already filled in.
CC1=C(O)C(=O)C(O)CO1 (stereo not drawn) | 72.74
Cc1cnc(O)nc1O | 75.00
Cc1ccc(C(C)C)c(O)c1 | 62.98
C=Cc1ccc(O)cc1OC | 58.15
C=Cc1cc(OC)c(O)c(OC)c1 | 60.48

Requested read-out: DPPH % inhibition. Entry: O=C1O[C@H]([C@@H](O)CO)C(O)=C1O [AA, ascorbic acid, reference compound]
81.35

---

- Target Or System: COX-2 (Homo sapiens)
- Construct: purchased Sigma-Aldrich (local distributor) C0858
- Sequence (P35354 18-604): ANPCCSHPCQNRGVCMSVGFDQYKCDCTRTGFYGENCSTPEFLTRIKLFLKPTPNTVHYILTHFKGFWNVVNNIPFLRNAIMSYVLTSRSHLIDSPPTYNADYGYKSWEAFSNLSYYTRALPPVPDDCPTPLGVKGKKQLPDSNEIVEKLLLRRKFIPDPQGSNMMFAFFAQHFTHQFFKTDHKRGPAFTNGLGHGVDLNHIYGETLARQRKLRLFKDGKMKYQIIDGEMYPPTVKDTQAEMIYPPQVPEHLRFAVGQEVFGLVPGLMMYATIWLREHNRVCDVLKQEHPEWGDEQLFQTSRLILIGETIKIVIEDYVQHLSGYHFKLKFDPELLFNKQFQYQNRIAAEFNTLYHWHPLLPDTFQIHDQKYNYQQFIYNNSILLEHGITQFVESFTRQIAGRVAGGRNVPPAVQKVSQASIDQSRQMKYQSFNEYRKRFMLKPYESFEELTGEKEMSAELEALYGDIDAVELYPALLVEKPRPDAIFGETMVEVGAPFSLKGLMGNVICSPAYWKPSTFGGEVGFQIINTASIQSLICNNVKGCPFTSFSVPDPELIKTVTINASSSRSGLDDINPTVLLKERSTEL
- Procedure Details: Cyclooxygenase COX-2 inhibition assay
- Format: biochemical
- Applied Conditions: 500 µg/mL
Reported Endpoint: inhibition at 500 µg/mL (%)
Value expressed in %; do not type the unit.

Check out these entries, answers already filled in.
C=Cc1ccc(O)cc1OC [Compound 4, 3-methoxy-4-vinylphenol] | 77.7
C=Cc1cc(OC)c(O)c(OC)c1 [Compound 5, 2,6-dimethoxy-4-vinylphenol] | 66.2
CC1=C(O)C(=O)C(O)CO1 (centres unmarked) [Compound 2] | 75.6

Requested read-out: inhibition at 500 µg/mL. Entry: Cc1ccc(C(C)C)c(O)c1 [Compound 3, 2-isopropyl-5-methylphenol]
74.7

Requested read-out: inhibition at 500 µg/mL. Entry: Cc1cnc(O)nc1O [Compound 1, 5-methylpyrimidine-24,4-diol]
78.8
